meta.source: ChEMBL document CHEMBL1201862

Tested on: SF-295
Test method notes: NCI tumour cell line growth inhibition, 48 h
The source made the active and inactive calls. Rule as the data show it: active = GI50 up to about 1.1 µM and inactive = higher.
Reported metric: GI50

Given the entry "O=C1/C(=C/c2ccc(Cl)cc2)N=C(c2ccccc2)N1/N=C/c1ccccc1O" , report its measured GI50.
11.9 µM (inactive)

What value of GI50 has been reported for the following compound? "O=C(c1ccc(Cl)cc1)N(C(=S)OCc1ccccn1)c1ccccc1"
76.6 µM (inactive)

Report GI50 for "Cc1cc(C)nc(NS(=O)(=O)c2ccc(Nc3c4ccccc4nc4c(C(=O)Nc5ccc(S(=O)(=O)Nc6cc(C)on6)cc5)cccc34)cc2)n1" please.
22.8 µM (inactive)

Quick one: GI50 for CCOC(=O)C1(Cc2ccc3ccccc3c2)CCCCCN1 (configuration not stated) ?
19 µM (inactive)

// returns reported GI50 for input "O=C(Nc1nc2ncn(CCOC(=O)c3ccccc3)c2c(=S)[nH]1)c1ccccc1"
45 µM (inactive)

Consider the compound shown here: CCc1cccc(C(C)CC)c1NC(=O)C(=O)Cc1nc2ccccc2o1 (configuration not stated) What is its recorded GI50?
> 50 µM (inactive)

What value of GI50 has been recorded for this entry: "CN(c1ccccc1)c1c(Cl)c(=O)oc2c1ccc1occc12"
> 100 µM (inactive)

Would you mind telling me what GI50 value was observed for COc1cc(C2c3cc4c(cc3OC(Nc3ccccc3)C2C)OCO4)cc(OC)c1O (configuration not stated) ?
4.28 µM (inactive)

What value of GI50 has been recorded for this entry: "Cc1cc(Cl)ccc1NC(=O)C(=O)Cc1occc(=O)c1O"
> 100 µM (inactive)

Consider the compound shown here: "Cc1ccc(C(=O)N(C(C)C)C(C)C)cc1/N=N/N(C)C" What is its recorded GI50?
> 86.9 µM (inactive)

Any idea what its GI50 is? The compound is "CO/C=C(/C(=O)OC)[C@@H]1C[C@@H]1c1ccc2ccccc2c1"
37.2 µM (inactive)

I am curious: what GI50 value has been reported for "CC1=C(C(=O)Nc2cccc(Cl)c2)C(c2ccccc2F)C(C(=O)Nc2cccc(Cl)c2)=C(C)N1" ?
17.3 µM (inactive)

Which GI50 reading was recorded for the compound NC(Cc1ccc(O)c(O)c1)P(=O)(O)O (configuration not stated) ?
> 100 µM (inactive)

Fill blank: measured GI50 of the compound "CC1=C[C@]2(O)C(=O)[C@H](C)C[C@H]3[C@@H](CC[C@@](C)(O)/C=C\2C1=O)C3(C)C" is ____.
24.5 µM (inactive)

Quick one: GI50 for CC(C)c1cccc2sc(NC(=O)C(=O)C(C#N)c3cccc4ccccc34)nc12 (configuration not stated) ?
69.7 µM (inactive)

Which value of GI50 has been reported for "COc1ccc(C(=O)Oc2c(C#N)sc3c2c(=O)n(-c2ccccc2)c(=S)n3-c2ccccc2)cc1" in the records?
35.7 µM (inactive)

Given CC(C)C(Br)C(=O)NCC(=O)O (configuration not stated) , state its recorded GI50.
> 100 µM (inactive)

---

Test system: A549
Test method notes: NCI tumour cell line growth inhibition, 48 h
The source made the active and inactive calls. No stated cut-off is given here; in the data, active = GI50 up to about 1.1 µM and inactive = higher.
Reported metric: GI50

Please tell me: GI50 of NC(Cc1ccc(O)c(O)c1)P(=O)(O)O (stereo unspecified) , system A549?
> 100 µM (inactive)

Give A549 GI50 for "Nc1ccc(-c2nc3ccccc3s2)cc1C(F)(F)F"
17.8 µM (inactive)

What value of GI50 on A549 does "COC(=O)c1cc(C#N)[nH]c1-c1cc(Br)cs1" have?
10.5 µM (inactive)

Provide the documented GI50 with A549 as the system for O=[N+]([O-])c1cccc(C2=NOC3C4CCC(C4)C23)c1 (stereo unspecified)
> 100 µM (inactive)

// lookup GI50 | system=A549 | key= "N=C(N)N/N=C\c1c(-c2ccccc2)nc2sccn12"
17.5 µM (inactive)

Hello, I am looking for reported GI50 with A549 for "CN(C)c1ccc(/C=C/C(=O)C(C)(C)C)cc1Br" . Could you help?
39.9 µM (inactive)

Identify the measured GI50 of CC1(C)CC(=O)C2=C(C1)c1c(ccc3ccccc13)NC2c1cn(Cc2ccc(Cl)cc2)c2ccccc12 (stereo unspecified) for A549.
> 100 µM (inactive)

What measured GI50 is associated with "CCCCCCCC(=O)OC[C@@H](C[As](=O)(O)O)OC(=O)CCCCCCC" on A549?
3.73 µM (inactive)

Field: GI50 (A549). Entry: CC(=C(C(N)=O)C(N)=O)C1C=C(c2cccs2)CC(c2ccc(Cl)cc2)=C1O (stereo unspecified)
88.7 µM (inactive)

Checklist item: GI50 tested on A549, entry "CC(C)(C)OC(=O)N1C(C2=COc3ccccc3O2)=COc2cccnc21" , value?
1.98 µM (inactive)

Lab request: please report GI50 under test system A549 for "CC(=O)/C(=N\N=C(N)N)c1ccccc1"
> 100 µM (inactive)

---

System: NCI-H23
Test method notes: NCI tumour cell line growth inhibition, 48 h
Activity calls are given as the source filed them. Cut-off read from the data, not from the text of the source: active = GI50 up to about 1.1 µM and inactive = higher.
Classes to choose from: active, inactive

Would you mind telling me which call this test gave COc1cc(C)c2c(c1C=O)Oc1c(c(C)c(O)c3c1C(O)OC3=O)OC2=O (configuration not stated) [STICTIC ACID] ?
inactive

Which outcome did this test record for the compound COC(=O)CCC12CCC(O1)c1ccccc12 (configuration not stated) ?
inactive

Hi team, can someone confirm the assay call for "Cc1nc2c(nc1C)C(=O)C1=C(C2=O)C2C=CC1CC2" ?
inactive

Dear colleague, could you share the recorded outcome for "c1ccc2c(CSCc3cccc4ccccc34)cccc2c1" when you have a moment?
inactive

// param item: "CCCc1cc(-c2ccc(-c3cc(CCC)c(C=O)[nH]3)s2)[nH]c1C=O" ; yields the recorded call
inactive

Could you please tell me the result logged for "CCN(CC)Cc1sc2nc3ccccc3n2c1-c1ccc(OC)cc1" in this assay?
inactive

Short answer needed: outcome of this test for "CCCN(CCC)C(=S)N/N=C/c1cccc(C)n1" ?
active

Look up the recorded call for "O=C(/C=C/c1c(O)ccc2ccccc12)c1cccc2ccccc12" in this test.
inactive

Tell me the assay call for C[C@]12CC[C@H]3[C@@H](CCC4=C[C@@H](OC5OCC(OC6OC(CO)C(O)C(O)C6O)C(O)C5O)CC[C@@]43C=O)[C@@]1(O)CCC2C1=CC(=O)OC1 (some centres not stated) please.
active

Write down the call the test reported for this compound. Item: "C/C(=N/NC(=S)N(C)C)c1ccccc1O"
inactive

Returns: the outcome recorded for "O=c1[nH]nc(Cc2ccccc2)n1/N=C/c1ccc([N+](=O)[O-])cc1" in this assay.
inactive

For Cc1cc(C(O)CCCc2ccccc2)cc(C)c1O (configuration not stated) , what call appears in the results of this test?
inactive

---

Tested on: T47D
Test method notes: NCI tumour cell line growth inhibition, 48 h
Calls of active or inactive are those of the source. Cut-off read from the data, not from the text of the source: active = GI50 up to about 1.1 µM and inactive = higher.
Entry note: the call must match one of active, inactive

Just curious, what result did COC1C(O)C(C)OC(O[C@@H]2C[C@H]3CC[C@@H]4[C@H](CC[C@]5(C)[C@@H](C6=CC(=O)OC6)CC[C@]45O)[C@@]3(C)[C@H](O)C2)C1O (some centres undefined) get here?
active

Recorded test call requested for CC1(C)C(OC(=O)c2ccccc2)C[C@]23CCC[C@](C)(C[C@@H](O)C12)C3 (some centres undefined)
inactive

Could you kindly confirm the outcome this assay logged for "CCN1CCCCCCCCCC(=N/O)/C(=N\O)C1" ?
inactive

I'd appreciate the recorded outcome for NC(=O)C(Nc1c(Cl)cccc1Cl)c1cc2cc(Br)ccc2nc1Cl (centres undefined) from this test.
inactive

Test call, this compound: "COC(=O)Nc1nc2ccc(S(=O)(=O)SC)cc2[nH]1"
inactive

Per the assay record, what outcome was assigned to "C[Si](C)(OCCS(=O)(=O)O)C1S(=O)(=O)OCCOS1(=O)=O" ?
inactive

For "Clc1sc(Cl)c2c1[C@H](Cl)C[C@@H]2Cl" , which call appears in the assay record?
inactive

Fill in: this test's call for C[N+]1(Cc2ccc(Cl)c(Cl)c2)CCCC1C1CCCN(Cc2ccc(Cl)c(Cl)c2)C1 (centres undefined) is ___
inactive

For "c1csc(-c2cc(-c3ccsc3)c(-c3ccsc3)s2)c1" , which call appears in the assay record?
inactive

---

Test system: SF-295
Test method notes: NCI tumour cell line growth inhibition, 48 h
The source made the active and inactive calls. Cut-off read from the data, not from the text of the source: active = GI50 up to about 1.1 µM and inactive = higher.
Could you please pick one outcome from this set? active, inactive

Outcome? C/C(=C1\C(=O)C(c2ccccc2)N(c2ccccc2)C1=O)c1ccc(Cl)cc1 (configuration not stated)
inactive

Hey, what did the test say about CC1C(c2ccc(N(C)C)cc2)c2cc3c(cc2OC1N1CCCC1)OCO3 (configuration not stated) ?
inactive

Each compound tested received a call. Report the one for "c1ccc([P+](c2ccccc2)(c2ccccc2)C2Sc3ccccc3S2)cc1" .
inactive

Would you mind telling me which call this test gave "O=C1/C(=N/c2ccc(Nc3ccccc3)cc2)Oc2ccccc21" ?
inactive

Test call, this compound: "Cc1c(C(=O)/C=C/c2ccco2)[n+]([O-])c2ccccc2[n+]1[O-]"
inactive

Answer briefly: the call reported for "Cc1ccc(C(=O)CCl)o1" in this assay.
inactive

For "CCCCCCNC(=S)N/N=C(\C)c1ccccn1" , what call appears in the results of this test?
active
